Documented protein stability index across a set of sequences
- Tested on: Saccharomyces cerevisiae
- ASSAY PROTOCOL: protein stability index of tFT-peptide fusion (C-terminal peptide) (PSI (0-1 scale)); higher = more stable (slower turnover)
- SETTINGS: genetic background: wild type; temperature: 30 C
Simply state the number, no unit and no words.

LEEPYKPQRQRC [YPL088W C-terminal 12 aa] | 0.718

q: Supply protein stability index measured with Saccharomyces cerevisiae for VFTPFLFGELIG [ERG1 C-terminal 12 aa] .
a: 0.712

q: Supply protein stability index measured with Saccharomyces cerevisiae for IDIPISVRQVTK [BUL1 C-terminal 12 aa] .
a: 0.696

q: Supply protein stability index measured with Saccharomyces cerevisiae for LVDIITGASSLG [ATP3 C-terminal 12 aa] .
a: 0.719

q: Supply protein stability index measured with Saccharomyces cerevisiae for AKFDGHAKTCHI [YBR051W C-terminal 12 aa] .
a: 0.707

q: Supply protein stability index measured with Saccharomyces cerevisiae for DGVENTPVESQQ [NMD3 C-terminal 12 aa] .
a: 0.707

q: Supply protein stability index measured with Saccharomyces cerevisiae for EDVEVPFITIHL [UBA1 C-terminal 12 aa] .
a: 0.683

q: Supply protein stability index measured with Saccharomyces cerevisiae for LSDSHYELNAES [PMT5 C-terminal 12 aa] .
a: 0.706
